- assay: Plasma protein binding (PPB)
- Format: in vitro ADME
- condition label: mouse, read-out: plasma protein binding
- Protocol: Complementing the toxicity profiling, ADME properties of the lead dehalogenil were determined. This had not been possible for the first generation frontrunner ChB1-Epo2 or the natural product ChA because of their poor limit of detection. […] Across species (mouse, rat, human), metabolic stability is high while plasma stability is moderate. Besides, no hemolysis and no inhibition of the metabolically important enzyme CYP3A4 was observed by both dehalogenil and ChA. […]

molecule: CC1=CC(C)C2C(C=CC3C(C)C=CC=CC(C)OC(=O)C(C)C(=O)CC(=O)C32)C1 (stereo not shown) [dehalogenil]
fraction unbound: < 0.002

====

- assay: In vivo PK after peroral administration (soy oil)
- Set-up: species or system mouse
- condition label: mouse, plasma, po; mice, 50 mg/kg; mean (n = 3)
- Method: Peroral administration was compared between dehalogenil and ChB1-Epo2. […] Clearance was slow (t1/2z 5.5 and 10 h for 10 and 50 mg/kg, respectively) but considerably higher than for ChB1-Epo2.
metric: Tmax

compound: CC1=CC(C)C2C(C=CC3C(C)C=CC=CC(C)OC(=O)C(C)C(=O)CC(=O)C32)C1 (stereo not shown) [dehalogenil]
metric: Tmax
value observed: 3 h

====

- assay: Aqueous solubility
- Format: physicochemical
- condition label: pH 5.0; read-out: semi thermodynamic solubility

compound: CC1=CC(C)C2C(C=CC3C(C)C=CC=CC(C)OC(=O)C(C)C(=O)CC(=O)C32)C1 (stereo not shown) [dehalogenil]
solubility thermodynamic / µM: 34.9

====

- assay: In vivo PK, peroral vs. intravenous administration, peroral bioavailability
- Parameters: species or system mouse
- condition label: mouse, in vivo; mice, 10 mg/kg po, mean (n = 3); read-out: t1/2z (converted)
metric: half-life (h)

compound: CC1=CC(C)C2C(C=CC3C(C)C=CC=CC(C)OC(=O)C(C)C(=O)CC(=O)C32)C1 (stereo not shown)
metric: half-life
unit text: h
value observed: 6.7

====

- assay: In vivo PK, peroral vs. intravenous administration, peroral bioavailability
- Set-up: species or system mouse
- condition label: mouse, in vivo; mice, 7.5 mg/kg iv, mean (n = 3)
metric: AUC(0-inf) (ng·h/mL)

compound: CC1=CC(C)C2C(C=CC3C(C)C=CC=CC(C)OC(=O)C(C)C(=O)CC(=O)C32)C1 (stereo not shown) [dehalogenil]
metric: AUC(0-inf)
value observed: 12100

====

- assay: Plasma protein binding (PPB)
- Format: in vitro ADME
- condition label: human, read-out: plasma protein binding
metric: fraction unbound

molecule: CC1=CC(C)C2C(C=CC3C(C)C=CC=CC(C)OC(=O)C(C)C(=O)CC(=O)C32)C1 (stereo not shown) [dehalogenil]
metric: fraction unbound
value observed: < 0.004

====

- assay: In vivo PK after subcutaneous application (50% ClearSol/PBS pH 7.4)
- Parameters: species or system mouse
- condition label: mouse, in vivo; mice, 25 mg/kg sc; n = 3

compound: CC1=CC(C)C2C(C=CC3C(C)C=CC=CC(C)OC(=O)C(C)C(=O)CC(=O)C32)C1 (stereo not shown)
unit text: h
Tmax: 3

====

- assay: Hemolysis
- Type: cell-based
- condition label: 20 μM; human blood cells; read-out: haemolysis of human blood cells
metric: hemolysis at 20 µM

molecule: CC1=CC(C)C2C(C=CC3C(C)C=CC=CC(C)OC(=O)C(C)C(=O)CC(=O)C32)C1 (stereo not shown) [dehalogenil]
metric: hemolysis at 20 µM
value observed: 1.4%

====

- assay: In vivo PK after peroral administration (soy oil)
- Set-up: species or system mouse
- condition label: mouse, plasma, po, 10 mg/kg, mice, 10 mg/kg po, soy oil; read-out: t1/2z (converted)
metric: half-life (h)

compound: CC1=CC(C)C2C(C=CC3C(C)C=CC=CC(C)OC(=O)C(C)C(=O)CC(=O)C32)C1 (stereo not shown)
value observed: 5.5

====

- assay: Plasma protein binding (PPB)
- Type: in vitro ADME
- condition label: mouse, all species: mouse, read-out: Plasma protein binding (PPB)
- Description: Complementing the toxicity profiling, ADME properties of the lead dehalogenil were determined. This had not been possible for the first generation frontrunner ChB1-Epo2 or the natural product ChA because of their poor limit of detection. […] Across species (mouse, rat, human), metabolic stability is high while plasma stability is moderate. Besides, no hemolysis and no inhibition of the metabolically important enzyme CYP3A4 was observed by both dehalogenil and ChA. […]

compound: CC1=CC(C)C2C(C=CC3C(C)C=CC=CC(C)OC(=O)C(C)C(=O)CC(=O)C32)C1 (stereo not shown) [dehalogenil]
fraction unbound: < 0.006

====

- assay: In vivo PK after peroral administration (soy oil)
- Parameters: species or system mouse
- condition label: mouse, plasma, po; mice, 10 mg/kg; mean (n = 3)
metric: Cmax (ng/mL)

compound: CC1=CC(C)C2C(C=CC3C(C)C=CC=CC(C)OC(=O)C(C)C(=O)CC(=O)C32)C1 (stereo not shown)
value observed: 261

====

- Test system: E. faecium DSM-17050 (vancomycin-resistant, VRE)
- assay: MIC testing (broth microdilution, EUCAST)
- Assay type: cell-based
Checkbox rule: MIC VRE lower than 0.4 µg/mL = Satisfied; MIC VRE not lower than 0.4 µg/mL = Not satisfied.

molecule: CC1=C[C@@H](C)[C@H]2[C@@H]3C(O)=C(SS)C(=O)[C@H](C)C(=O)O[C@@H](C)/C=C/C=C\[C@@H](C)[C@@H]3C=C[C@@H]2C1
class name: Satisfied
//
molecule: CC1=CC(C)C2C(C=CC3C(C)C=CC=CC(C)OC(=O)C(C)C(=O)C(Cl)=C(O)C32)C1 (centres unmarked) [ChB1, reference compound]
class name: Satisfied
//
molecule: CC1C=CC=CC(C)C2C=CC3CC4(C)OC4C(C)C3C2C(=O)CC(=O)C(C)C(=O)O1 (centres unmarked) [Dehalogenil-Epo1]
class name: Not satisfied
//
molecule: CC1=CC(C)C2C(C=CC3C(C)C=CC=CC(C)OC(=O)C(C)C(=O)CC(=O)C32)C1 (stereo not drawn) [dehalogenil-2′Epi]
class name: Satisfied
//
molecule: CC1=C[C@@H](C)[C@H]2[C@@H]3C(=O)C(Cl)=C([O-])[C@H](C)C(=O)O[C@@H](C)/C=C/C=C\[C@@H](C)[C@@H]3C=C[C@@H]2C1.CC1=C[C@@H](C)[C@H]2[C@@H]3C(=O)C(Cl)=C([O-])[C@H](C)C(=O)O[C@@H](C)/C=C/C=C\[C@@H](C)[C@@H]3C=C[C@@H]2C1.CC1=C[C@@H](C)[C@H]2[C@@H]3C(=O)C(Cl)=C([O-])[C@H](C)C(=O)O[C@@H](C)/C=C/C=C\[C@@H](C)[C@@H]3C=C[C@@H]2C1.[Mg+2].[Na+] [ChB2, reference compound]
class name: Not satisfied

====

- assay: In vivo PK after subcutaneous application (50% ClearSol/PBS pH 7.4)
- Set-up: species or system mouse
- condition label: mouse, in vivo; mice, 10 mg/kg sc; n = 3
metric: Cmax (µg/mL)

compound: CC1=CC(C)C2C(C=CC3C(C)C=CC=CC(C)OC(=O)C(C)C(=O)CC(=O)C32)C1 (stereo not shown)
metric: Cmax
value observed: 0.488

====

- assay: In vivo PK after peroral administration (soy oil)
- Set-up: species or system mouse
- condition label: mouse, plasma, po; mice, 10 mg/kg; mean (n = 3)
metric: AUC(0-t) (ng·h/mL)

compound: CC1=CC(C)C2C(C=CC3C(C)C=CC=CC(C)OC(=O)C(C)C(=O)CC(=O)C32)C1 (stereo not shown) [dehalogenil]
metric: AUC(0-t)
unit text: ng·h/mL
value observed: 3020

====

- assay: In vivo PK after subcutaneous application (50% ClearSol/PBS pH 7.4)
- Set-up: species or system mouse
- condition label: mouse, in vivo; mice, 25 mg/kg sc; n = 3
metric: AUC(0-t) (ng·h/mL)

compound: CC1=CC(C)C2C(C=CC3C(C)C=CC=CC(C)OC(=O)C(C)C(=O)CC(=O)C32)C1 (stereo not shown)
unit text: ng·h/mL
value observed: 18500

====

- System: mature gametocytes (stages IV and V)
- assay: Activity against mature gametocytes (stage IV-V), bioluminescence assay
- Type: cell-based, P. falciparum
Overview of recorded IC50 for various molecules
metric: IC50 (nM)

molecule: CC1=CC(C)C2C(C=CC3C(C)C=CC=CC(C)OC(=O)C(C)C(=O)CC(=O)C32)C1 (stereo not drawn) [dehalogenil]
value observed: 5.8
--
molecule: CC1=C[C@@H](C)[C@H]2[C@@H]3C(O)=C(SS)C(=O)[C@H](C)C(=O)O[C@@H](C)/C=C/C=C\[C@@H](C)[C@@H]3C=C[C@@H]2C1
value observed: 67.4
--
molecule: CC1=CC(C)C2C(C=CC3C(C)C=CC=CC(C)OC(=O)C(C)C(=O)CC(=O)C32)C1 (stereo not drawn) [dehalogenil-2′Epi]
value observed: 25.2
